Test: Primary qHTS for inhibitors of La Crosse Virus (LACV) - induced cell death in SH-SY5Y cells (AID 1508616);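 also: top concentration of the series differs between compounds; higher means more rescue of cells from virus-induced death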
Settings: SH-SY5Y LACV cytopathicity rescue, ATP luminescence, 6 d; series mostly up to 4.29 µM
Records with an inconclusive call do not appear. Activity calls are given as the source filed them. Calls follow the shape of the dose curve; as a rule, active = well fitted inhibition curve with a large enough effect; inconclusive = small, poorly fitted or top-dose-only effect; inactive = no such curve, though single readings can be large or run the other way.
endpoint: outcome

INSERT INTO results (compound, reported_value) VALUES
  ('COc1cccc(N(C)C(=S)Oc2ccc3c(c2)CCCC3)n1', 'inactive'),
  ('CCCOc1ccc(C(=O)OCCN(CC)CC)cc1N', 'inactive'),
  ('CCCCS(=N)(=O)CCC(N)C(=O)O (stereo not drawn)', 'inactive'),
  ('CN1CCCC(n2nc(Cc3ccc(Cl)cc3)c3ccccc3c2=O)CC1 (stereo not drawn)', 'inactive'),
  ('CNC(=O)c1cc(Oc2ccc(NC(=O)Nc3ccc(Cl)c(C(F)(F)F)c3)cc2)ccn1', 'inactive'),
  ('OCc1ccc(-c2nn(Cc3ccccc3)c3ccccc23)o1', 'inactive'),
  ('CCOC(=O)c1ccc(C#Cc2ccc3c(c2)C(C)(C)CCS3)nc1', 'inactive'),
  ('Nc1ccc(S(=O)(=O)Nc2ccccn2)cc1', 'inactive'),
  ('CCOC(=O)[C@H](CCc1ccccc1)N[C@H]1CS[C@H](c2cccs2)CN(CC(=O)O)C1=O', 'inactive'),
  ('CCN[C@H]1C[C@H](C)S(=O)(=O)c2sc(S(N)(=O)=O)cc21', 'inactive'),
  ('CC(=O)[C@H]1CC[C@H]2[C@@H]3CC=C4C[C@@H](O)CC[C@]4(C)[C@H]3CC[C@]12C', 'inactive'),
  ('CC1=CC(=O)c2ccccc2C1=O', 'inactive'),
  ('CCCN[C@H]1CCc2nc(N)sc2C1', 'inactive'),
  ('O=S(=O)(c1cccc2cnccc12)N1CCCNCC1', 'inactive'),
  ('CC[C@H](C)C(=O)O[C@H]1C[C@@H](C)C=C2C=C[C@H](C)[C@H](CC[C@@H]3C[C@@H](O)CC(=O)O3)[C@H]21', 'inactive'),
  ('COc1cc([C@@H]2c3cc4c(cc3[C@H](O)[C@H]3COC(=O)[C@H]23)OCO4)cc(OC)c1OC', 'inactive'),
  ('CN(CCOc1ccc(CC2SC(=O)NC2=O)cc1)c1ccccn1 (stereo not drawn)', 'inactive'),
  ('Cc1noc(NS(=O)(=O)c2ccc(N)cc2)c1C', 'inactive'),
  ('CNC1CCCN(c2c(F)cc3c(=O)c(C(=O)O)cn(C4CC4)c3c2OC)C1 (stereo not drawn)', 'inactive'),
  ('CC(C)Cn1cnc2c(N)nc3ccccc3c21', 'inactive'),
  ('COc1cc(NS(=O)(=O)c2ccc(N)cc2)nc(OC)n1', 'inactive'),
  ('COc1ncnc(NS(=O)(=O)c2ccc(N)cc2)c1OC', 'inactive'),
  ('O=P(O)(O)C(O)(Cc1cccnc1)P(=O)(O)O', 'inactive');
